experiment: protein stability index of a GFP-peptide fusion (yeast GPS) (PSI 1-4); higher = more stable; sorted into four equal gates, so the index is relative within each strain
testParameters: pdr5∆
recordedEndpoint: protein stability index
Please state the value as a number alone, without comment.

Prompt: Consider the sequence shown here: VNNTRRRVYNRVLETTL [BRN1] What is its recorded protein stability index?
Response: 2.98

Prompt: Tell me the measured protein stability index of VKIRATGGTRTKTPGPG [RPS14A] , please.
Response: 3.08

Prompt: Recorded protein stability index for AGGPDMTTPQNISSSQQ [DSN1] , please?
Response: 3.04

Prompt: Could you share which protein stability index value was measured for TMEVKSFPILDQCVGQV [YMR129W/POM152] ?
Response: 3.08

These data points were gathered from the supplement of paper PMC9732359.
